# MEASUREMENT_TARGET: HPK1 (Homo sapiens (Human), UniProt Q92918, S171E/T165E)
# Sequence (Q92918 whole entry T165E/S171E): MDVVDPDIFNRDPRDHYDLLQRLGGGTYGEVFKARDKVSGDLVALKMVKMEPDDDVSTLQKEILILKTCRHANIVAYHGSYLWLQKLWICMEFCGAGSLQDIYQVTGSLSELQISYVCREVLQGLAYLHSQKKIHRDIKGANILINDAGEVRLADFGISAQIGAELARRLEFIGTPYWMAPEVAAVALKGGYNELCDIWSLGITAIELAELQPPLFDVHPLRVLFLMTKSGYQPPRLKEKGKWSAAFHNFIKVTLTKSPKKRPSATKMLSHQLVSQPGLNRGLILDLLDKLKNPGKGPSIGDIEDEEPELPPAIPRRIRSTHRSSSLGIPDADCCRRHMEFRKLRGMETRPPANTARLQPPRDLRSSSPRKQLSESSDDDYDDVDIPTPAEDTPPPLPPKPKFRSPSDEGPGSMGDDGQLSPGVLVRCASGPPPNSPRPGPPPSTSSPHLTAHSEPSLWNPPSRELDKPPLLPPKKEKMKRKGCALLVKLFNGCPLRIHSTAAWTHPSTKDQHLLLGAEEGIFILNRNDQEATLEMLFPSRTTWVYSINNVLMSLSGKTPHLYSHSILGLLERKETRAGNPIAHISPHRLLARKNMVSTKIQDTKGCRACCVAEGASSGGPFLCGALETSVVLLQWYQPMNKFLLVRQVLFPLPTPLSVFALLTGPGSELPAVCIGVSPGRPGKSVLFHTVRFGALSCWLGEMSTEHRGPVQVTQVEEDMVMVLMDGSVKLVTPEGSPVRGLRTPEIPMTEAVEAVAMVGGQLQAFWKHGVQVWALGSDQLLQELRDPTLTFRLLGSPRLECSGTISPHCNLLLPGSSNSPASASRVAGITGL
# ASSAY_PROCEDURE: HPK1-FL HTRF Enzymatic Assay (HTRF)
# Assay type: biochemical
# TEST_CONDITIONS: HPK full length T165E S171E 0.125 nM, ATP 1 mM, Biotin-SLP76 100 nM, read-out: HPK1 Ki (nM), H = HTRF
Recorded Ki values for a group of compounds are listed next.
The response must be a number in nM with no trailing unit.

1) Cc1c(-c2cc3cc(Nc4cc5n(n4)CC(=O)NCC5)ncc3cc2F)cnc2c1NCCC2 | 0.018
2) Cc1c(NS(=O)(=O)C2CC2)cncc1-c1cc2cc(Nc3cc4n(n3)CC(=O)N(C)CC4)ncc2cc1F | 4.1
3) Cc1c(-c2cc3cc(Nc4cc5n(n4)CC(=O)N(C)CC5)ncc3cc2F)ccc2c1CNC2 | 97

Q: Endpoint output: Ki of Cc1c(-c2cc3cc(Nc4cc5n(n4)CC(=O)NCC5)ncc3cc2F)cnc2c1NCC(F)(F)O2 . Value?
A: 0.161

Q: Endpoint output: Ki of Cc1ccncc1-c1ccc2cnc(Nc3cc4n(n3)CC(=O)N(C(C)C)CC4)cc2c1 . Value?
A: 1

Q: Endpoint output: Ki of Cc1c(-c2cc3cc(Nc4cc5n(n4)Cc4nccn4CC5)ncc3cc2F)cnc2c1NCCCO2 . Value?
A: 0.013

Q: Endpoint output: Ki of Cc1c(-c2cc3cc(Nc4cc5n(n4)CC(=O)N(C(C)C)CC5)ncc3c(F)c2F)cnc2c1NCCO2 . Value?
A: 0.038

Q: Endpoint output: Ki of CN1CCc2cc(Nc3cc4cc(-c5cncc6c5CCC6O)c(F)cc4cn3)nn2CC1=O (racemic) . Value?
A: 9

====

# MEASUREMENT_TARGET: HPK1 (Homo sapiens (Human), UniProt Q92918, S171E/T165E)
# ASSAY_PROCEDURE: HPK1-FL HTRF Enzymatic Assay (HTRF)
# Assay type: biochemical
# TEST_CONDITIONS: HPK full length T165E S171E 0.125 nM, ATP 1 mM, Biotin-SLP76 100 nM, read-out: HPK1 Ki (nM), H = HTRF
Labelling: Ki reported below 5 nM becomes T; at or above becomes F.

Q: Does the reported Ki of the following compound sit strictly below 5 nM? Cc1c(N)cncc1-c1cc2cc(Nc3cc4n(n3)CC(=O)N(CCN3CCOCC3)CC4)ncc2cc1F [Compound 136]
A: T

Q: Does the reported Ki of the following compound sit strictly below 5 nM? Cc1c(-c2cc3cc(Nc4cc5n(n4)CC(=O)N(C)CC5)ncc3cc2F)cnc2c1CCCO2 [Compound 190]
A: T

Q: Does the reported Ki of the following compound sit strictly below 5 nM? CN1CCc2cc(Nc3cc4cc(-c5cncc(N)c5C(F)(F)F)c(F)cc4cn3)nn2CC1=O [Compound 227]
A: T

Q: Does the reported Ki of the following compound sit strictly below 5 nM? Cc1c(N)cncc1-c1cc2cc(Nc3cc4n(n3)Cc3nccn3CC4)ncc2c(F)c1F [Compound 157]
A: T

====

# MEASUREMENT_TARGET: HPK1 (Homo sapiens (Human), UniProt Q92918, S171E/T165E)
# ASSAY_PROCEDURE: HPK1-FL HTRF Enzymatic Assay (HTRF)
# Type: biochemical
# TEST_CONDITIONS: HPK full length T165E S171E 0.125 nM, ATP 1 mM, Biotin-SLP76 100 nM, read-out: HPK1 Ki (nM), H = HTRF
ENDPOINT: Ki (nM)
The response must be a number in nM with no trailing unit.

In the examples that follow, each entry is paired with its recorded Ki.
1) Cc1c(-c2cc3cc(Nc4cc5n(n4)CC(=O)N(C)CC5)ncc3cc2F)cnc2nc[nH]c12 [Compound 175] | 0.14
2) Cc1c(-c2cc3cc(Nc4cc5n(n4)CC(=O)N(C)CC54CC4)ncc3cc2F)cnc2c1NCC[C@]2(C)O (single isomer, unassigned) [Compound 229a] | 0.09
3) Cc1cc(S(C)(=N)=O)ncc1-c1cc2cc(Nc3cc4n(n3)CC(=O)N(C)CC4)ncc2cc1F (stereo not drawn) [Compound 178] | 23.7
4) Cc1c(-c2cc3cc(Nc4cc5n(n4)CC(=O)N(C)CC5)ncc3cc2F)cnc2c1[C@@](C)(O)CCO2 (single isomer, unassigned) [Compound 226a] | 18
5) Cc1c(CS(C)(=O)=O)cncc1-c1cc2cc(Nc3cc4n(n3)CC(=O)N(C)CC4)ncc2cc1F [Compound 204] | 0.18

Q: Endpoint output: Ki of Cc1c(-c2cc3cc(Nc4cc5n(n4)CC(=O)N(C)CC5)ncc3cc2F)cnc2c1C(O)CCO2 (single isomer, unassigned) [Compound 180a] . Value?
A: 0.05

====

# MEASUREMENT_TARGET: HPK1 (Homo sapiens (Human), UniProt Q92918, S171E/T165E)
# ASSAY_PROCEDURE: HPK1-FL HTRF Enzymatic Assay (HTRF)
# Assay type: biochemical
# TEST_CONDITIONS: HPK full length T165E S171E 0.125 nM, ATP 1 mM, Biotin-SLP76 100 nM, read-out: HPK1 Ki (nM), H = HTRF
ENDPOINT: log10 Ki (log10 of the value in nM)
All values: log10 Ki [nM].

Q: Endpoint output: log10 Ki of Cc1c(-c2cc3cc(Nc4cc5n(n4)CC(=O)N(C(C)C#N)CC5)ncc3cc2F)cnc2c1NCCO2 (single isomer, unassigned) [Compound 147b] . Value?
A: -1.89

Q: Endpoint output: log10 Ki of Cc1c(-c2cc3cc(Nc4cc5n(n4)CC(=O)N(C)OC5)ncc3cc2F)cnc2c1NCCO2 . Value?
A: -1.89

====

# MEASUREMENT_TARGET: HPK1 (Homo sapiens (Human), UniProt Q92918, S171E/T165E)
# ASSAY_PROCEDURE: HPK1-FL HTRF Enzymatic Assay (HTRF)
# Assay type: biochemical
# TEST_CONDITIONS: HPK full length T165E S171E 0.125 nM, ATP 1 mM, Biotin-SLP76 100 nM, read-out: HPK1 Ki (nM), H = HTRF
ENDPOINT: Ki (nM)
The response must be a number in nM with no trailing unit.

1. Cc1c(-c2cc3cc(Nc4cc5n(n4)CC(=O)N(C)CC5)ncc3cc2F)cnc2c1NCC[C@H]2O (single isomer, unassigned) [Compound 236b] | 0.062
2. Cc1c(-c2cc3cc(Nc4cc5n(n4)CC(=O)N(C)CC5)ncc3cc2F)cnnc1N | 0.83
3. Cc1c(-c2cc(F)c3cnc(Nc4cc5n(n4)CC(=O)N(C)CC5)cc3c2)cnc2c1NCC[C@]2(C)O (single isomer, unassigned) [Compound 231b] | 0.38
4. Cc1c(N)cncc1-c1cc2cc(Nc3cc4n(n3)CC(=O)N(C)CC4(F)F)ncc2cc1F | 0.04
5. Cc1c(-c2cc3cc(Nc4cc5n(n4)CC(=O)NCC5)ncc3cc2F)cnc2c1NC(C)CO2 (racemic) | 0.073

Consider the record given below.
Q: Endpoint output: Ki of Cc1c(-c2cc3cc(Nc4cc5n(n4)CC(=O)N(C)CC54CC4)ncc3cc2F)cnc2c1NCC[C@@H]2O (single isomer, unassigned) [Compound 205b] . Value?
A: 0.013

====

# MEASUREMENT_TARGET: HPK1 (Homo sapiens (Human), UniProt Q92918, S171E/T165E)
# ASSAY_PROCEDURE: HPK1-FL HTRF Enzymatic Assay (HTRF)
# Type: biochemical
# TEST_CONDITIONS: HPK full length T165E S171E 0.125 nM, ATP 1 mM, Biotin-SLP76 100 nM, read-out: HPK1 Ki (nM), H = HTRF
Labelling: Ki reported below 0.06 nM becomes Fulfilled; at or above becomes Not fulfilled.

Q: Does the reported Ki of the following compound sit strictly below 0.06 nM? Cc1c(-c2cc3cc(Nc4cc5n(n4)CS(=O)(=O)N(C)C5)ncc3cc2F)cnc2c1NCC[C@H]2O (single isomer, unassigned) [Compound 242b]
A: Not fulfilled

====

# MEASUREMENT_TARGET: HPK1 (Homo sapiens (Human), UniProt Q92918, S171E/T165E)
# ASSAY_PROCEDURE: HPK1-FL HTRF Enzymatic Assay (HTRF)
# Format: biochemical
# TEST_CONDITIONS: HPK full length T165E S171E 0.125 nM, ATP 1 mM, Biotin-SLP76 100 nM, read-out: HPK1 Ki (nM), H = HTRF
ENDPOINT: Ki (nM)
The response must be a number in nM with no trailing unit.

In the examples that follow, each entry is paired with its recorded Ki.
1. Cc1c(N)cncc1-c1cc2cc(Nc3cc4n(n3)CC(=O)N(C)C(C)(C)C4)ncc2cc1F [Compound 120] | 0.04
2. Cc1c(CN)cncc1-c1cc2cc(Nc3cc4n(n3)CC(=O)N(C)CC4)ncc2cc1F [Compound 211] | 19
3. CNCc1cncc(-c2cc3cc(Nc4cc5n(n4)CC(=O)N(C)CC5)ncc3cc2F)c1C [Compound 210] | 37
4. Cc1c(N)cncc1-c1cc2cc(Nc3cc4n(n3)CC(=O)N(CC(C)(C)O)CC4)ncc2cc1F [Compound 158] | 0.023
5. Cc1c(CC#N)cncc1-c1cc(F)c2cnc(Nc3cc4n(n3)CC(=O)NCC4)cc2c1 [Compound 238] | 0.076
6. Cc1c(N)cncc1-c1cc2cc(Nc3cc4n(n3)CC(=O)N(C(C)C)CC4)ncc2c(C)c1C#N [Compound 130] | 0.068
7. CC(=O)Nc1cncc(-c2cc3cc(Nc4cc5n(n4)CC(=O)N(C)CC5)ncc3cc2F)c1C [Compound 171] | 1.78
8. Cc1c(N)cncc1-c1cc2cc(Nc3cc4n(n3)Cc3nncn3CC4)ncc2cc1F [Compound 139] | 0.076
9. Cc1c(N)cncc1-c1cc2cc(Nc3cc4n(n3)CC(=O)N(C(C)C)CC4)ncc2cc1Cl [Compound 140] | 0.086
10. Cc1c(-c2cc3cc(Nc4cc5n(n4)Cc4nncn4CC5)ncc3cc2F)cnc2c1NCCO2 [Compound 151] | 0.013

Q: Endpoint output: Ki of Cc1c(-c2cc3cc(Nc4cc5n(n4)CC(=O)N(C(C)CO)CC5)ncc3cc2F)cnc2c1NCCO2 (single isomer, unassigned) [Compound 148b] . Value?
A: 0.013

src = patent US12378249B2
